Provenance of the data: patent US20240327535A1

Molecular target: T1, extracellular domain of human BCMA (human, UniProt Q02223 1-54)
T1 construct: amine-linked to Octet AR2G tips; also called hsBCMA; BCMA (human)
T1 sequence: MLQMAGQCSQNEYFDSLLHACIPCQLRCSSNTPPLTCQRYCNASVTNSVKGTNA
Test: Octet BLI; Fab 200 nM
Kd less than 2 nM is 1 (yes); Kd greater than or equal to 2 nM is 0 (no).

{"columns": ["binder", "class"],
 "data": [
  ["AB200-R1H26-R2Vk39 (Fab, V domains shown) VH: QVQLVQSGAEVKKPGSSVKVSCKASGGSFSNYWMHWVRQAPGQGLEWMGATYRIHSDTFYNQKFKGRVTITADKSTSTAYMELSSLRSEDTAVYYCARGAIYHGYDVLDNWGQGTLVTVSS VL: DIQMTQSPSSLSASVGDRVTITCRASQSISSYINWYQQKPGKAPKLLIYATSNIQSGVPSRFSGSGSGTDFTLTISSLQPEDFATYYCQQYRRLPWSFGQGTKLEIKR", "1 (yes)"],
  ["AB200-R1H26-R2Vk24 (Fab, V domains shown) VH: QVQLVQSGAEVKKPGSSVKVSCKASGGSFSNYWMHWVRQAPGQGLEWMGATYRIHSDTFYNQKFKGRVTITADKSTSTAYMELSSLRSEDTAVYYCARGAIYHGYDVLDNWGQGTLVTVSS VL: DIQMTQSPSSLSASVGDRVTITCRASQSISSYLNWYQQKPGKAPKLLIYATSNIQSGVPSRFSGSGSGTDFTLTISSLQPEDFATYYCQQYRRLPWSFGQGTKLEIKR", "1 (yes)"]
]}

query: For AB200-R1H26-R2Vk9 (Fab, V domains shown) VH: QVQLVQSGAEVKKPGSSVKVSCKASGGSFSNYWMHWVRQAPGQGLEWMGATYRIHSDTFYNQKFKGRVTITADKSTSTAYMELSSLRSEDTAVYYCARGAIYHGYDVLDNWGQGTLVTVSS VL: DIQMTQSPSSLSASVGDRVTITCRASQSISSYLNWYQQKPGKAPKLLIYAASSLQSGVPSRFSGSGSGTDFTLTISSLQPEDFATYYCQQYRRLPWSFGQGTKLEIKR , is the recorded Kd below the cut-off of 2 nM?
result: 0 (no)

query: For AB200-R1H26-R2Vk36 (Fab, V domains shown) VH: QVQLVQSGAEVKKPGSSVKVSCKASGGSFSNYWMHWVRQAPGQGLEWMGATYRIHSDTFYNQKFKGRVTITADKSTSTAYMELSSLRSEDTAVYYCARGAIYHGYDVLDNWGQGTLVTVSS VL: DIQMTQSPSSLSASVGDRVTITCRASQSISSYINWYQQKPGKAPKLLIYATSNLQSGVPSRFSGSGSGTDFTLTISSLQPEDFATYYCQQFRRLPWTFGQGTKLEIKR , is the recorded Kd below the cut-off of 2 nM?
result: 1 (yes)

query: For AB200-R1H26-R2Vk4 (Fab, V domains shown) VH: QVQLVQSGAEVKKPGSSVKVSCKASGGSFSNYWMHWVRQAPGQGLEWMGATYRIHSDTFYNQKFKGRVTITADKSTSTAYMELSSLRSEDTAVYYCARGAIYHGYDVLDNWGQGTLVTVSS VL: DIQMTQSPSSLSASVGDRVTITCRASQSISSYLNWYQQKPGKAPKLLIYATSNIQSGVPSRFSGSGSGTDFTLTISSLQPEDFATYYCQQFRKLPWSFGQGTKLEIKR , is the recorded Kd below the cut-off of 2 nM?
result: 1 (yes)
